Reported Residue activity (%) hSULT1A1 values for a set of compounds
- ASSAY_SYSTEM: hSULT1A1 (Homo sapiens)
- Construct: 6-histidine tag (N); TEV site (N); made in house; host or cells: Escherichia coli BL21 (DE3), pET29a(+)
- Sequence (P50225 whole entry): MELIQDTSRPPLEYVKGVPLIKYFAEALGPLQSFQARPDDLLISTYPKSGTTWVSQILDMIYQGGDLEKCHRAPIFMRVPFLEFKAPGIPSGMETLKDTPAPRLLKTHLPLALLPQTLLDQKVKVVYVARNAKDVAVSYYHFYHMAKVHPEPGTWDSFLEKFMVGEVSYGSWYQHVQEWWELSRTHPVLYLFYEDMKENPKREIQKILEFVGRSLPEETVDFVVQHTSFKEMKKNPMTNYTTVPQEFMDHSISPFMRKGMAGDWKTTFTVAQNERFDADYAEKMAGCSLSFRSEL
- PROTOCOL_DETAILS: Fluorescence-based microplate inhibition assay, hSULT1A1-catalyzed HN-241 4-O-sulfation
- Assay type: biochemical
- TEST_SETTINGS: test compound 1 μM, HN-241 1 μM, 15 min
Quick note: give the figure in %, leave out the unit.

[[record]]
compound = "O=C(/C=C/c1ccc(O[C@@H]2O[C@H](CO)[C@@H](O)[C@H](O)[C@H]2O)cc1)c1ccc(O)cc1O [Neoisoliquiritigenin]"
measurement_label = "Residue activity (%) hSULT1A1"
assay_value = 91.36

[[record]]
compound = "O=C(/C=C/c1ccccc1)c1ccccc1 [trans-Chalcone]"
measurement_label = "Residue activity (%) hSULT1A1"
assay_value = 71.86

[[record]]
compound = "CC(C)=CCC[C@](C)(O)[C@H]1CC[C@]2(C)[C@@H]1[C@H](O)C[C@@H]1[C@@]3(C)CC[C@H](O)C(C)(C)[C@@H]3[C@@H](O[C@@H]3O[C@H](CO)[C@@H](O)[C@H](O)[C@H]3O[C@@H]3OC[C@@H](O)[C@H](O)[C@H]3O)C[C@]12C [Notoginsenoside R2]"
measurement_label = "Residue activity (%) hSULT1A1"
assay_value = 105.59

[[record]]
compound = "C[C@H]1C(=O)O[C@@H]2CCN3CC=C(COC(=O)[C@](C)(O)[C@]1(C)O)[C@H]23 [Crotaline]"
measurement_label = "Residue activity (%) hSULT1A1"
assay_value = 128.03


Returns the measured Residue activity (%) hSULT1A1 for the input compound. Input: COc1cc(O)c2c(c1)C(=O)c1cc(C)cc(O)c1C2=O [Emodin-3-methyl ether]
54.41

Returns the measured Residue activity (%) hSULT1A1 for the input compound. Input: C=C(CCC=C(C)C)[C@H]1CC[C@]2(C)[C@@H]1[C@H](O)C[C@@H]1[C@@]3(C)CC[C@H](O[C@@H]4O[C@H](CO)[C@@H](O)[C@H](O)[C@H]4O)C(C)(C)[C@@H]3CC[C@]12C [Ginsenoside Rk2]
97.02

Returns the measured Residue activity (%) hSULT1A1 for the input compound. Input: CC(C)=CCC[C@](C)(O)[C@H]1CC[C@]2(C)[C@@H]1[C@H](O)C[C@@H]1[C@@]3(C)CC[C@H](O[C@@H]4O[C@H](CO)[C@@H](O)[C@H](O)[C@H]4O)C(C)(C)[C@@H]3CC[C@]12C [20(S)-Ginsenoside Rh2]
85.94

Returns the measured Residue activity (%) hSULT1A1 for the input compound. Input: CC(C)=CC/C=C(/C)[C@H]1CC[C@]2(C)[C@@H]1[C@H](O)C[C@@H]1[C@@]3(C)CC[C@H](O)C(C)(C)[C@@H]3[C@@H](O[C@@H]3O[C@H](CO)[C@@H](O)[C@H](O)[C@H]3O[C@@H]3O[C@@H](C)[C@H](O)[C@@H](O)[C@H]3O)C[C@]12C [Ginsenoside F4]
99.89

Returns the measured Residue activity (%) hSULT1A1 for the input compound. Input: COc1ccc(/C=C/C(=O)c2ccccc2)cc1 [4-Methoxychalcone]
78.44

Returns the measured Residue activity (%) hSULT1A1 for the input compound. Input: CC(C)=CCC[C@@](C)(O)[C@H]1CC[C@]2(C)[C@@H]1[C@H](O)C[C@@H]1[C@@]3(C)CC[C@H](O)C(C)(C)[C@@H]3[C@@H](O[C@@H]3O[C@H](CO)[C@@H](O)[C@H](O)[C@H]3O[C@@H]3O[C@@H](C)[C@H](O)[C@@H](O)[C@H]3O)C[C@]12C [20(R)-Ginsenoside Rg2]
104.07

Returns the measured Residue activity (%) hSULT1A1 for the input compound. Input: `C[C@]12CC[C@H](O)C[C@@]1(O)CC[C@@H]1[C@@H]2CC[C@]2(C)[C@@H](c3ccc(=O)oc3)CC[C@]12O`
121.35

Returns the measured Residue activity (%) hSULT1A1 for the input compound. Input: CC(C)=CCC[C@](C)(O)[C@H]1CC[C@]2(C)[C@@H]1[C@H](O)C[C@@H]1[C@@]3(C)CC[C@H](O)C(C)(C)[C@@H]3CC[C@]12C [(20S)-Protopanaxdiol]
99.75

Returns the measured Residue activity (%) hSULT1A1 for the input compound. Input: COc1ccc(-c2cc(=O)c3c(O)cc(O)c(-c4cc(-c5cc(=O)c6c(O)cc(OC)cc6o5)ccc4OC)c3o2)cc1 [Sciadopitysin]
27.69

Returns the measured Residue activity (%) hSULT1A1 for the input compound. Input: Cc1c(O)c(C)c2c(c1O)C(=O)[C@H](Cc1ccc3c(c1)OCO3)CO2 [Methylophiopogonanone A]
28.87

Returns the measured Residue activity (%) hSULT1A1 for the input compound. Input: CC(C)=CCC[C@@](C)(O)[C@H]1CC[C@]2(C)[C@@H]1[C@H](O)C[C@@H]1[C@@]3(C)CC[C@H](O[C@@H]4O[C@H](CO)[C@@H](O)[C@H](O)[C@H]4O)C(C)(C)[C@@H]3CC[C@]12C [20(R)-Ginsenoside Rh2]
98.01

Returns the measured Residue activity (%) hSULT1A1 for the input compound. Input: COC(=O)/C=C/c1ccc(O)c(O)c1 [Methyl caffeate acid]
9.01

Returns the measured Residue activity (%) hSULT1A1 for the input compound. Input: COc1cc(OC)c(CCC(=O)c2ccc(O)cc2)c(OC)c1 [Loureirin B]
5.84

Returns the measured Residue activity (%) hSULT1A1 for the input compound. Input: `COc1cc2c(c(O)c1OC)C(=O)c1c(cc(C)c(O)c1OC)C2=O`
0.00

---

Reported activity at 1 µM values for a set of molecules
- ASSAY_SYSTEM: hSULT1A1 (Homo sapiens)
- Construct: 6-histidine tag (N); TEV site (N); made in house; host or cells: Escherichia coli BL21 (DE3), pET29a(+)
- PROTOCOL_DETAILS: Fluorescence-based microplate inhibition assay, hSULT1A1-catalyzed HN-241 4-O-sulfation;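 note: reaction started with 200 µM PAPS at 37 °C, fluorescence read continuously (Ex 350 nm, Em 450 nm), activity expressed relative to DMSO-only control without inhibitor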
- Format: biochemical
- TEST_SETTINGS: test compound 1 μM, HN-241 1 μM, 15 min; read-out: Residue activity (%) hSULT1A1
Quick note: give the figure in %, leave out the unit.

Worked cases, answers included:
[[record]]
molecule = "COC1=C[C@@H]2[C@@H]3Cc4ccc(OC)c(O)c4[C@]2(CCN3C)CC1=O"
assay_system = "hSULT1A1 (Homo sapiens)"
measurement_label = "activity at 1 µM"
assay_value = 103

[[record]]
molecule = "O=C1C[C@@H](c2ccc(O[C@@H]3O[C@H](CO)[C@@H](O)[C@H](O)[C@H]3O)cc2)Oc2cc(O)ccc21"
assay_system = "hSULT1A1 (Homo sapiens)"
measurement_label = "activity at 1 µM"
assay_value = 100

[[record]]
molecule = "CC(C)=CCC[C@](C)(O)[C@H]1CC[C@]2(C)[C@@H]1[C@H](O)C[C@@H]1[C@@]3(C)CC[C@H](O)C(C)(C)[C@@H]3[C@@H](O[C@@H]3O[C@H](CO)[C@@H](O)[C@H](O)[C@H]3O[C@@H]3O[C@H](CO)[C@@H](O)[C@H](O)[C@H]3O)C[C@]12C [Ginsenoside Rf]"
assay_system = "hSULT1A1 (Homo sapiens)"
measurement_label = "activity at 1 µM"
assay_value = 102

[[record]]
molecule = "COc1cc(O)cc2c1C(=O)C[C@@H](c1ccccc1)O2"
assay_system = "hSULT1A1 (Homo sapiens)"
measurement_label = "activity at 1 µM"
assay_value = 69.8

[[record]]
molecule = "CC(C)=CCOc1c2occc2cc2ccc(=O)oc12"
assay_system = "hSULT1A1 (Homo sapiens)"
measurement_label = "activity at 1 µM"
assay_value = 101

[[record]]
molecule = "CC(C)Oc1ccc2c(=O)c(-c3ccccc3)coc2c1"
assay_system = "hSULT1A1 (Homo sapiens)"
measurement_label = "activity at 1 µM"
assay_value = 61.3

[[record]]
molecule = "Cc1cc(O)c2c(c1)C(=O)c1cc(O)cc(O)c1C2=O"
assay_system = "hSULT1A1 (Homo sapiens)"
measurement_label = "activity at 1 µM"
assay_value = 0

[[record]]
molecule = "C/C1=C\\CC(C)(C)/C=C/C(=O)/C(C)=C/CC1"
assay_system = "hSULT1A1 (Homo sapiens)"
measurement_label = "activity at 1 µM"
assay_value = 102

[[record]]
molecule = "CC(C)=CCc1cc(-c2oc3cc(O)cc(O)c3c(=O)c2O)ccc1O"
assay_system = "hSULT1A1 (Homo sapiens)"
measurement_label = "activity at 1 µM"
assay_value = 3.31

[[record]]
molecule = "COc1ccc(-c2cc(=O)c3c(O)cc(O)cc3o2)cc1O"
assay_system = "hSULT1A1 (Homo sapiens)"
measurement_label = "activity at 1 µM"
assay_value = 0


Returns the measured activity at 1 µM for the input molecule. Input: `CC1(C)[C@@H](O[C@H]2O[C@H](C(=O)O)[C@@H](O)[C@H](O)[C@H]2O[C@@H]2O[C@H](C(=O)O)[C@@H](O)[C@H](O)[C@H]2O)CC[C@]2(C)[C@H]3C(=O)C=C4[C@@H]5C[C@@](C)(C(=O)O)CC[C@]5(C)CC[C@@]4(C)[C@]3(C)CC[C@@H]12`
106

Returns the measured activity at 1 µM for the input molecule. Input: `O=c1c(O)c(-c2cc(O)c(O)c(O)c2)oc2cc(O)cc(O)c12`
0.08

Returns the measured activity at 1 µM for the input molecule. Input: CC(C)=CCC[C@](C)(O)[C@H]1CC[C@]2(C)[C@@H]1[C@H](O)C[C@@H]1[C@@]3(C)CC[C@H](O)C(C)(C)[C@@H]3[C@@H](O[C@@H]3O[C@H](CO)[C@@H](O)[C@H](O)[C@H]3O)C[C@]12C [Ginsenoside Rh1]
114

Returns the measured activity at 1 µM for the input molecule. Input: `COc1c(O)cc2occ(-c3ccc(O)cc3)c(=O)c2c1O`
4.17
